Measured values drawn from PubChem BioAssay (NCI) for this set.

// values below are reported TGI
# System: SK-MEL-28 melanoma
# METHOD DESCRIPTION: NCI tumour cell line growth inhibition, 48 h

// worked examples, TGI included
CCCCCCCCCCCCCCCCOCC(Cl)CP(=O)(O)OP(=O)(O)OCC1OC(n2cnc3c(N)ncnc32)C(O)C1O (stereo not given)
> 100 µM
COc1cc(Nc2ncc3c(C)nc(-c4cccc(C(F)(F)F)c4)n3n2)cc(OC)c1OC
8.25 µM
CN(C)CCCNc1nc2ccccc2c2c(=O)c3cc(F)ccc3sc12
3.19 µM
COc1ccccc1/C=C/C(=O)c1ccc(Nc2nc(Nc3ccc(F)cc3)nc(Nc3ccc(F)cc3)n2)cc1
> 100 µM
Cn1c([N+](=O)[O-])cnc1/C=C1\Oc2ccc(Br)cc2C1=O
2.87 µM
C=C(C)[C@@H]1/C=C(/C(C)C)CC[C@@]2(C)OC2CC[C@H](C)CC1=O (stereo not given in full)
> 100 µM
C=CC(O)(CBr)CCC(Br)C(C)(C)Cl (stereo not given)
> 10 µM
NCCCNC(=O)c1csc(NC(=O)c2csc(NC(=O)CCCN)n2)n1
> 100 µM

Enter reported TGI observed with SK-MEL-28 melanoma for O=C1c2ccccc2C(=O)N1[C@@H](Cc1ccccc1)C(=O)n1cccc1CO
> 100 µM

# repeat for Clc1ccc(Cc2nc3cc(Cl)c(Cl)cc3n2CC2CCCN3CCCCC23)cc1Cl (stereo not given)
10.7 µM
